target-under-test: endogenous CETP from serum (Homo sapiens, UniProt P11597)
Construct: yielding a concentration of approximately 15 nM endogenous CETP in the assay; from tissue; host or cells: human serum (95% of the assay volume)
Sequence (P11597 18-493): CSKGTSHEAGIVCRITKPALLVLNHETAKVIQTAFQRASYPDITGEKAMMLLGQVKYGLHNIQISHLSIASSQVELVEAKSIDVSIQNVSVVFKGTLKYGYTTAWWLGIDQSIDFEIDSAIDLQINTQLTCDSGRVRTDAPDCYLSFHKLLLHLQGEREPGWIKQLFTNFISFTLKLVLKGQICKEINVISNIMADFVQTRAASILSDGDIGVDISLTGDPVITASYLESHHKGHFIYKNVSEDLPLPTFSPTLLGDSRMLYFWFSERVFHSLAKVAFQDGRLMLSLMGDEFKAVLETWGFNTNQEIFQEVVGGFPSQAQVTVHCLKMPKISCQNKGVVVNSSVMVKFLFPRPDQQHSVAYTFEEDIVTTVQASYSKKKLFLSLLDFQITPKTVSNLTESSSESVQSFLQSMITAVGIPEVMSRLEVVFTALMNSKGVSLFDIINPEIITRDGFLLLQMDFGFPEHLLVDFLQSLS
experiment-description: RTA assay in 95% human serum (95% RTA), CETP-catalyzed CE and TG transfer
Assay type: biochemical
study-conditions: RTA assay in 95% human serum; read-out: IC50
observation-type: IC50 (µM)
Please respond with the number in µM and leave the unit unwritten.

{"compound": "COc1cc(F)c(C(C)C)cc1-c1ccc(C(F)(F)F)cc1[C@@H]1CC[C@H]2[C@@H](c3ccnc(C(F)(F)F)c3)SC(=O)N12 [Example 11]", "scale-unit": "µM", "observed-value": 2.52}
{"compound": "COc1ncc(-c2ccc(C(=O)O)cc2C)cc1-c1ccc(C(F)(F)F)cc1[C@@H]1CC[C@H]2[C@@H](c3cc(C(F)(F)F)cc(C(F)(F)F)c3)SC(=O)N12 [Example 4]", "scale-unit": "µM", "observed-value": 0.559}
{"compound": "COc1ncc(-c2ccc(C(=O)O)cc2C)cc1-c1ccc(C(F)(F)F)cc1[C@@H]1CC[C@H]2[C@@H](c3cc(C(F)(F)F)cc(C(F)(F)F)c3)CC(=O)N12 [Example 16]", "scale-unit": "µM", "observed-value": 2.94}
{"compound": "COc1cc(F)c(C(C)C)cc1-c1ccc(C(F)(F)F)cc1[C@@H]1CC[C@H]2[C@@H](c3cc(F)cc(C(F)(F)F)c3)SC(=O)N12 [Example 7]", "scale-unit": "µM", "observed-value": 2}
{"compound": "COc1cc(F)c(C(C)C)cc1-c1ccc(C(F)(F)F)cc1[C@@H]1CC[C@H]2[C@@H](c3cc(F)cc(C(F)(F)F)c3)CC(=O)N12 [Example 18]", "scale-unit": "µM", "observed-value": 2.69}

Record request: IC50 value, item COc1ccc(-c2ccc(C(=O)O)cc2C)cc1-c1ccc(C(F)(F)F)cc1[C@@H]1CC[C@H]2[C@@H](c3ccnc(C(F)(F)F)c3)SC(=O)N12 [Example 9] 1.99
